These measurements were taken from PubChem BioAssay AID651724.

Tested on: CtBP / adenovirus E1A interaction (AlphaScreen)
Test: qHTS Assay for Inhibitors of the CtBP/E1A Interaction; further: on the % scale 0 is the no-effect control and ±100 the full control effect
Conditions: AlphaScreen GST-E1A/His-CtBP binding, 1536-well; stronger effect = lower value
Text: Carboxyl-terminal binding protein (CtBP) is a co-repressor for many transcription factors. […] Our studies have shown that CtBP is overexpressed in multiple human cancers, including lung, breast, and head and neck cancers. In particular, it is over-expressed in 50% of primary lung cancer and 90% of metastatic lesions. CtBP suppresses epithelial-specific genes as well as genes critical for apoptosis, providing the underlying molecular mechanism for its role in tumorigenesis. […]
In all, about 340,000 compounds went through this assay and about 1,700 (0.5%) were called active. Not shown: some 2% with an inconclusive outcome. This excerpt belongs to a sample that is enriched for actives.
parameter: activity change (%)
Express it in %; write the number only.

Study these solved cases before continuing.
CCN(CC)C(=O)C1=C(C)N(Cc2ccccc2)C(=O)C(CC(=O)NC(c2ccccc2)c2ccccc2)C1 (stereo unspecified)	-5.91
O=C(CSc1nc2cccc(F)c2c(=O)n1-c1ccccc1)Nc1ccc2c(c1)CCC2	8.09
Cc1ccc(S(=O)(=O)N2CCC(=O)N([C@H](COCc3ccccc3)C(C)C)CC2)cc1	3.58
O=[N+]([O-])c1cccc(S(=O)(=O)NCc2ccccn2)c1	1.03
O=C(COC(=O)c1ccccn1)NNC(=O)c1ccc(Br)cc1	-15.7
O=C(OCC(=O)N1CCCCCC1)c1cnc(Cl)c(Cl)c1	-78.7
COc1cc2ccc(C(C)=O)c(O)c2cc1OC	3.1
O=C(OCC(=O)N1CCCC1)c1ccc(Cl)nc1	2.13

response.value for COc1ccc(CN2CCC(C)(Oc3cccc(F)c3)C2)c2ccccc12 (stereo unspecified) (field: activity change) = -13.7

response.value for O=S(=O)(Nc1ccc2nc(-c3ccco3)[nH]c2c1)c1ccccc1 (field: activity change) = -18.3

response.value for COCOc1cccc(CN2CCC(C)(Oc3ccc(SC)cc3)C2)c1 (stereo unspecified) (field: activity change) = -22.6

----------
system: CtBP / adenovirus E1A interaction (AlphaScreen); assay: qHTS Assay for Inhibitors of the CtBP/E1A Interaction; settings: AlphaScreen GST-E1A/His-CtBP binding, 1536-well; further: on the % scale 0 is the no-effect control and ±100 the full control effect
Among all 340,000 compounds or so, about 1,700 (0.5%) were called active. About 2% were inconclusive and are not listed. Cut-off read from the data, not from the text of the source: active = activity change below about -65%; inconclusive = mostly about -30% to -63%; inactive = weaker than that. The entries come from a sample that favours actives as a whole.
Just give me one of these, please: active, inactive

A selection of reference data follows.
CC1CCN(S(=O)(=O)c2nnc(NC(=O)COc3ccccc3F)s2)CC1	inactive
O=C(Cn1ncc2c3ccccc3n(Cc3ccccc3)c2c1=O)NCc1ccccn1	inactive
CCOC(=O)N1CCN(C(=O)C(C)NC(=O)c2ccco2)CC1 (stereo not drawn)	inactive

(Q) Per the records of this test, what outcome belongs to Cc1c(Cl)c([N+](=O)[O-])nn1Cc1ccc(C(=O)N/N=C\c2cc(Cl)ccc2O)o1 ?
(A) active

(Q) Per the records of this test, what outcome belongs to O=C(NCCN1C(=O)C2C3C=CC(C3)C2C1=O)Nc1ccccn1 (stereo not drawn) ?
(A) inactive

(Q) Per the records of this test, what outcome belongs to Cc1ccc(C(=O)NNC(=O)c2ccncc2)cc1S(=O)(=O)N1CCCCC1 ?
(A) inactive

----------
tested on: CtBP / adenovirus E1A interaction (AlphaScreen); assay: qHTS Assay for Inhibitors of the CtBP/E1A Interaction; conditions: AlphaScreen GST-E1A/His-CtBP binding, 1536-well; further: on the % scale 0 is the no-effect control and ±100 the full control effect
In all, about 340,000 compounds went through this assay and about 1,700 (0.5%) were called active. Inconclusive results (about 2%) are left out. Cut-off read from the data, not from the text of the source: active = activity change below about -65%; inconclusive = mostly about -30% to -63%; inactive = weaker than that. The sample as a whole holds a higher share of actives than the screen did.
Just give me one of these, please: true = active, false = inactive

COc1ccc([C@H]2CC(=O)C[C@@H](CCn3cc(CC4CCCC4)nn3)O2)cc1	false

(Q) Per the records of this test, what outcome belongs to COc1cccc(/C=N/Nc2ncc(C(F)(F)F)cc2Cl)c1O ?
(A) true

(Q) Per the records of this test, what outcome belongs to CCCCCNC(=O)C1C(=O)Nc2ccccc2C(=O)N1C(C)(C)C (stereo not given) ?
(A) false

(Q) Per the records of this test, what outcome belongs to CC(C)Sc1ncnc2c1cnn2-c1ccccc1 ?
(A) false

(Q) Per the records of this test, what outcome belongs to Cc1ccc(NC(=O)CSc2nn3c(=O)c(C)nnc3s2)cc1Cl ?
(A) true
